compounds and their reported IC50
# Tested on: MCF10A cells
# testDescription: EdU incorporation / cell cycle progression screen in MCF10A cells
# Type: cell-based, human
# assayConditions: Homo sapiens, MCF-10A, 18 h treatment, rough values from Figure 1 graphs, read-out: IC50 (concentration required for 50% decrease of EdU-positive cells)
# number only, unit µM dropped from output

Cc1[nH]c2c(Cl)cccc2c1CCNC(=O)c1cc(S(=O)(=O)N(C)C)c(Cl)cc1Cl	50.5
Cc1[nH]c2ccc(F)cc2c1CCNC(=O)c1cc(S(=O)(=O)N(C)C)c(Cl)cc1Cl	6.66
Cc1[nH]c2ccccc2c1CCNC(=O)c1cc([N+](=O)[O-])ccc1Cl	13.8
CCc1cc2cc(C(=O)NCCc3c(C)[nH]c4ccc(C)cc34)sc2s1	4.01
Cc1[nH]c2ccc(OC(F)(F)F)cc2c1CCNC(=O)c1ccc(S(=O)(=O)N(CCCl)CCCl)cc1	3.17

Enquiry: So what IC50 did Cc1ccc2[nH]c(C)c(CCNC(=O)c3ccc(C(=O)c4ccccc4)o3)c2c1 get with MCF10A cells?
Return: 0.696

Enquiry: So what IC50 did Cc1[nH]c2ccc(OCc3ccccc3)cc2c1CCNC(=O)c1cccc(Br)c1 get with MCF10A cells?
Return: 11.5

Enquiry: So what IC50 did Cc1[nH]c2ccccc2c1CCNC(=O)c1ccccc1C(=O)c1ccccc1 get with MCF10A cells?
Return: 20

Enquiry: So what IC50 did Cc1[nH]c2ccccc2c1CCNC(=O)c1ccccc1F get with MCF10A cells?
Return: 56.3

Enquiry: So what IC50 did Cc1[nH]c2c(C(F)(F)F)cccc2c1CCNC(=O)c1cc(S(=O)(=O)NC2CC2)c(Cl)cc1Cl get with MCF10A cells?
Return: 3.58
